src = ChEMBL document CHEMBL1201862

Test system: RXF 393
experiment: NCI tumour cell line growth inhibition, 48 h
Active and inactive are the calls of the source. No stated cut-off is given here; in the data, active = GI50 up to about 1.1 µM and inactive = higher.
Labels: True = active, False = inactive

[
  {
    "compound": "Cn1c(/C=C/CO)c(CO)c2c1C(=O)C=C(N1CC1)C2=O",
    "class_assignment": "True"
  },
  {
    "compound": "O=C1C(=Cc2ccc([N+](=O)[O-])o2)C(=O)N(CCc2ccccc2)S(=O)(=O)N1CCc1ccccc1",
    "class_assignment": "False"
  },
  {
    "compound": "CCOC(=O)/C(=C\\NC[C@@H](C)O)c1nc2ccccc2[nH]1",
    "class_assignment": "False"
  },
  {
    "compound": "O=C1CSC2(CC(/C=C/c3cccs3)=NN2c2cccc(S(=O)(=O)O)c2)N1c1nc2ccccc2s1 (stereo unspecified)",
    "class_assignment": "False"
  },
  {
    "compound": "CCOC(=O)[C@@]1(C(C)=O)CC(C)=C(C)C[S@@+]1[O-]",
    "class_assignment": "False"
  },
  {
    "compound": "CC1CCN(CCC(=O)CC(c2ccccc2)c2c(O)c3ccccc3oc2=O)CC1 (stereo unspecified)",
    "class_assignment": "False"
  },
  {
    "compound": "Cc1cc(NS(=O)(=O)c2ccc(NC(=O)c3cccc4c(Nc5ccc(S(=O)(=O)Nc6cc(C)on6)cc5)c5ccc(Cl)cc5nc34)cc2)no1",
    "class_assignment": "False"
  },
  {
    "compound": "CCCC1C(=O)CCc2c(OC)ccc(OC)c21 (stereo unspecified)",
    "class_assignment": "False"
  },
  {
    "compound": "O=C(O)/C(Cl)=C(\\Cl)C(=O)c1ccccc1",
    "class_assignment": "False"
  },
  {
    "compound": "O=c1ccn(Cc2ccccc2CCl)c(=O)[nH]1",
    "class_assignment": "False"
  },
  {
    "compound": "Cn1c(N)c(Cc2ccc(Cl)cc2)c(=O)[nH]c1=O",
    "class_assignment": "False"
  },
  {
    "compound": "CCCCC(=O)Nc1ccc2cc(C(=O)OC)c(=O)[nH]c2n1",
    "class_assignment": "False"
  },
  {
    "compound": "O=C(NNS(=O)(=O)c1ccc(Br)cc1)c1ccc(Cl)cc1NC(=O)C12CC3CC(CC(C3)C1)C2",
    "class_assignment": "False"
  },
  {
    "compound": "O=[N+]([O-])c1ccc2nc(=S)[nH]n2c1",
    "class_assignment": "False"
  },
  {
    "compound": "COC(=O)C1=CC(=O)C(C(=O)Nc2ccc(OC)cc2)C(c2ccccc2)O1 (stereo unspecified)",
    "class_assignment": "False"
  },
  {
    "compound": "CC1CCN(CC(=O)N2c3ccccc3Sc3cc4ccccc4cc32)CC1",
    "class_assignment": "False"
  },
  {
    "compound": "CCOC(=O)c1ccc(/N=N\\c2ccc(N(CCC#N)CCC#N)cc2C)cc1",
    "class_assignment": "False"
  },
  {
    "compound": "CC(C)c1cccc(=O)c(O)c1",
    "class_assignment": "False"
  },
  {
    "compound": "COC(=O)c1sc2c(=O)c(C(=O)OC)c(C(=O)OC)sc2c(=O)c1C(=O)OC",
    "class_assignment": "False"
  },
  {
    "compound": "CC(Oc1ccc(OCC2CCCCC2)cc1)C(=O)N(CCO)CCO (stereo unspecified)",
    "class_assignment": "False"
  },
  {
    "compound": "COc1ccc(-c2cc(-c3ccc(Nc4ccnc5cc(C(F)(F)F)ccc45)cc3)[nH]c(=O)c2C#N)cc1",
    "class_assignment": "False"
  }
]
